Hi there, I'd appreciate the recorded kon for every entry that follows.
Target: T1, Human B7-H4 ECD-Flag-His10 (monomeric) (human, UniProt Q7Z7D3 25-259)
T1 construct: Minimally biotinylated for KinExA; also called hB7H4-ECD-Flag-His10; B7-H4-FLAG
T1 sequence: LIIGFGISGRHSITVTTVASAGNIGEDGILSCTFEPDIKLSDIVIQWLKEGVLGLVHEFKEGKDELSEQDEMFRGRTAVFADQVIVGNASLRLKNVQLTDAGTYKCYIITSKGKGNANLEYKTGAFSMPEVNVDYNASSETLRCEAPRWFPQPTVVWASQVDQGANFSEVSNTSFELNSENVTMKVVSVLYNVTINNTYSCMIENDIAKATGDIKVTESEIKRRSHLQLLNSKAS
Experiment: Octet BLI, hIgG1-TM on Protein G (n = 4-7)
Answer in M⁻¹ s⁻¹, number only, no unit symbol.

kon lookup needed for ZY0EO5-E07 human IgG1-TM (antibody, V domains shown, also called ZY0E05-E07; E05-E07) VH: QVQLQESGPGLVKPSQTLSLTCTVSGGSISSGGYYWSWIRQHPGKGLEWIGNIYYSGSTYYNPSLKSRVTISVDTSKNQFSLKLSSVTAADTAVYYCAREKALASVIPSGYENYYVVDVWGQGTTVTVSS VL: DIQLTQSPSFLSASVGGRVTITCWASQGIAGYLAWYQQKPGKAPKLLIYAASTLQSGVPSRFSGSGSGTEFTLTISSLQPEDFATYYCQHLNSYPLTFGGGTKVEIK , thanks. 17100

Query (binder): ZY0EP0-C07 human IgG1-TM (antibody, V domains shown, also called ZY0EPO-C07) VH: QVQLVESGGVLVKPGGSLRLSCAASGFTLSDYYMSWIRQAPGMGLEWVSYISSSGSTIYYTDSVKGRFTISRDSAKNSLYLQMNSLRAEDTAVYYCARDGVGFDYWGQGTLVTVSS VL: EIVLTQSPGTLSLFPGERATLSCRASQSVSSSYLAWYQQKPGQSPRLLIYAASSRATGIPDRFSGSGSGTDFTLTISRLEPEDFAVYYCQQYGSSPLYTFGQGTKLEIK ; field requested: kon 41600

Please report the recorded kon for ZY0EQD-E02 human IgG1-TM (antibody, V domains shown) VH: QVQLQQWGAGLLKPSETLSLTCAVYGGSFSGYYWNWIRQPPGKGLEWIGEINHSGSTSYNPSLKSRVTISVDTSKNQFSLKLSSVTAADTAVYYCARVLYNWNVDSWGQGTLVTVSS VL: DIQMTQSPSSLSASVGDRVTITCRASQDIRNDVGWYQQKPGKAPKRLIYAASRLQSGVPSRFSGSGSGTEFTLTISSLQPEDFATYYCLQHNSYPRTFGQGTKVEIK . 193000

// lookup kon for ZY0EOB-F05 human IgG1-TM (antibody, V domains shown) VH: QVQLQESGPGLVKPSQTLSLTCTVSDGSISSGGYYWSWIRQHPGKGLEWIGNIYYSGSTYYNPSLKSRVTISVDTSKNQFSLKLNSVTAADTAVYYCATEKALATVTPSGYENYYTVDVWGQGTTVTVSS VL: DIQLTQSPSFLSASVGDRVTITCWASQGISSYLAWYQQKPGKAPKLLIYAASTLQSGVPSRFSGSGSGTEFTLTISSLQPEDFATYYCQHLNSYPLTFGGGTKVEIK 26500

GET /values?readout=kon&item= ZY0EPQ-E02 human IgG1-TM (antibody, V domains shown) VH: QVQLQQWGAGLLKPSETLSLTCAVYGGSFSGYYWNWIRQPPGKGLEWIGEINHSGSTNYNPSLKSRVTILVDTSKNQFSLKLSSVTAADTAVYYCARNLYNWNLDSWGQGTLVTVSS VL: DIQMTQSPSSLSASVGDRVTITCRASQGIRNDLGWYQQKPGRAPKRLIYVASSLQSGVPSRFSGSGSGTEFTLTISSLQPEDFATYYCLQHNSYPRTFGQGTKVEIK 70900

The reported measurements were obtained from patent US20240239894A1.
